Field: protein stability index. Provide a value for each of the variants that follow.
B1: SNURF (parent)
chain: QVPVVDFQAELRQAFLAETPRGG

Variants of: B1
Experiment: protein stability index of a GFP-peptide fusion (GPS, HEK-293T) (PSI 1-6); higher = more stable;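 further: lentivirally expressed fusions sorted by FACS into six bins by GFP to DsRed ratio, PSI derived from sequencing read proportions per bin multiplied by bin number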
Conditions: c terminus: native
Lab note: jot the number down without any unit.

Per the record, `QVPVVDFQAELRQAFLAETPKGG` has protein stability index of 1.78

Per the record, `QVPAVDFQAELRQAFLAETPRGG` has protein stability index of 3.33

Per the record, `QVPVVDFQAELRQAFLAETPLGG` has protein stability index of 2.66

Per the record, `QVPVWDFQAELRQAFLAETPRGG` has protein stability index of 3.5
